Data provenance is patent US6645983B1.

- System: T-47D
- TEST METHOD NOTES: MTT test, cytotoxic activity on non-clonogenic cell lines
- Type: cell-based
- TEST CONTEXT: Homo sapiens, T47D; 10^−5 M, 72 hours of incubation, control condition = 100%, mean value; read-out: mean optical density as percentage of control, T-47D
ASSAY ENDPOINT: viability at 10 µM (%)
Give the quantity in %, number only.

COMPOUND: COc1ccc(-c2cn(C)c3c(OC)ccc(O)c3c2=O)cc1 [CRL8392]
ASSAY TARGET: T-47D
viability at 10 µM (%): 68.6
//
COMPOUND: CCc1ccc(OC)c2c1c(=O)c(-c1ccc(OC)cc1)cn2C [CRL8414]
ASSAY TARGET: T-47D
viability at 10 µM (%): 96.2

Summary for this compound, COc1ccc(-c2cn(C)c3ccc(OC)cc3c2=O)cc1 [CRL8378] : viability at 10 µM is 110

Summary for this compound, COc1ccc(-c2c[nH]c3cc(OC)c(OC)cc3c2=O)cc1 [CRL8354] : viability at 10 µM is 104
